B1: BTBD1 (parent)
chain: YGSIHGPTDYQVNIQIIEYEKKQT

Variants of: B1
Experiment: protein stability index of a GFP-peptide fusion (GPS, HEK-293T) (PSI 1-6); higher = more stable;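 also: lentivirally expressed fusions sorted by FACS into six bins by GFP to DsRed ratio, PSI derived from sequencing read proportions per bin multiplied by bin number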
Conditions: c terminus: a fixed tail appended
Provide the reported protein stability index of each item.
A bare number is all that is needed in reply.

q: What value of measured protein stability index is listed for Y19L ?
a: 2.54

q: So what does the record say about protein stability index for T8C ?
a: 2.25

q: # query: protein stability index of entry Y19C
a: 2.69

q: Endpoint output: protein stability index of E18N . Value?
a: 2.17

q: For the variant shown here, G2M , give the reported protein stability index.
a: 2.83

q: Sample K22F — what was its protein stability index?
a: 1.39

q: Look at this variant and give its reported protein stability index. Q11C
a: 1.54

q: Fill in the blank: the reported protein stability index of I16P is ____.
a: 2.9

q: For the variant E20D , what protein stability index is on record?
a: 2.59
